The values you see were collected from patent US5659023A.

- Test system: human CMV
- experiment: standard plaque inhibition assay, inhibitory effect against human CMV
- Type: cell-based
- test.settings: Human betaherpesvirus 5; reference HPMPC; read-out: IC50
measured.parameter: IC50 (µM)

- molecule: "Nc1ccn(C[C@@H](CO)OCP(=O)(O)O)c(=O)n1 [HPMPC, reference compound]"
  unit.abbrev: "µM"
  quantitative.result: 0.5
